Below, each of the compounds is paired with its reported AD50: X%(Y) value.
- Test system: male albino Wistar rats (morphine effect, tail flick)
- methodDescription: narcotic antagonist activity, modified rat tail flick test (inhibition of morphine effect)
- Type: in vivo
- assayContext: intraperitoneal, at 10 mg/kg, vs ED80 morphine
Write the answer as a number in %, unit excluded.

Worked examples follow.
compound: COc1ccc2c3c1O[C@H]1C(=O)C(C(=O)c4ccc(F)cc4)C[C@H]4[C@@H](C2)N(CC2CC2)CC[C@]314 (some centres unmarked) [TR-5575]
readingUnit: %
measuredResult: 17

compound: CCCCC(=O)C1C[C@H]2[C@H]3Cc4ccc(O)c5c4[C@@]2(CCN3CC2CC2)[C@@H](O5)C1=O (some centres unmarked) [TR-5520]
readingUnit: %
measuredResult: 77

compound: COc1ccc2c3c1O[C@H]1C(=O)C(C(=O)C(C)(C)C)C[C@H]4[C@@H](C2)N(CC2CC2)CC[C@]314 (some centres unmarked) [TR-5571]
readingUnit: %
measuredResult: 13

compound: O=C(c1ccc(F)cc1)C1C[C@H]2[C@H]3Cc4ccc(O)c5c4[C@@]2(CCN3CC2CC2)[C@@H](O5)C1=O (some centres unmarked) [TR-5579]
readingUnit: %
measuredResult: 45

// switching to the query compound
Provide AD50: X%(Y) value for the following compound: COc1ccc2c3c1O[C@H]1C(=O)C(C(C)(C)O)C[C@H]4[C@@H](C2)N(CC2CC2)CC[C@]314 (some centres unmarked) [TR-5479]
41
